Data credit: paper PMC11762167

# Tgt: UniProt:Q13304
# Method Description: GloSensor cAMP in HEK293 cells transfected with hGPR17S
# Test Settings: 3 µM forskolin-stimulated GloSensor cAMP, read-out: cAMP Potency IC50
Property Name: pIC50
Entry type: numeric. Quantity: pIC50, the -log10 of concentration in molar units.

Give UniProt:Q13304 pIC50 for "O=C(O)CCc1c(C(=O)O)[nH]c2cc(Cl)cc(Cl)c12" 8.82

###

# Tgt: hGPR17L (Homo sapiens)
# Method Description: GloSensor cAMP in HEK293 cells transfected with hGPR17L
# Format: cell-based
# Parameters: host or cells: GLUTag cells (murine enteroendocrine line), adenoviral transduction
# Test Settings: 3 µM forskolin, read-out: cAMP Potency EC50 (reversal of inhibition)
Property Name: EC50
Could you kindly put the unit after your number?

Please give the measured EC50 for this compound: "O=C(O)CCc1c(C(=O)O)[nH]c2cc(Cl)cc(Cl)c12" 4 µM

###

# Tgt: hGPR17S (Homo sapiens, UniProt Q13304)
# Construct: host or cells: HEK293 cells (ATCC CRL-1573), transient transfection
# Sequence (Q13304 29-367): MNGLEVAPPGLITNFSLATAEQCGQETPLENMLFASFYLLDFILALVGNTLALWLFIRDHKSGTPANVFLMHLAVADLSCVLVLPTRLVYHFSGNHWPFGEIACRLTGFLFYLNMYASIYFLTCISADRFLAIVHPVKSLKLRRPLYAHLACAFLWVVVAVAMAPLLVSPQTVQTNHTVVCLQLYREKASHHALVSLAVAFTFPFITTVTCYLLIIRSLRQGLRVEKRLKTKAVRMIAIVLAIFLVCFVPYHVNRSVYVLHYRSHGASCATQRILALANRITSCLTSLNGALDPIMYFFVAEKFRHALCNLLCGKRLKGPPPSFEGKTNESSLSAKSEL
# Method Description: Calcium mobilization in HEK293 cells transfected with hGPR17S
# Type: cell-based
# Test Settings: read-out: Calcium Potency EC50
Property Name: EC50 (nM)
Report the value in nM with no unit label.

Please give the measured EC50 for this compound: O=C(O)CCc1c(C(=O)O)[nH]c2cc(Cl)cc(Cl)c12 [MDL29,951] 43

###

# Tgt: hGPR17S (Homo sapiens, UniProt Q13304)
# Construct: host or cells: HEK293 cells (ATCC CRL-1573), transient transfection
# Method Description: GloSensor cAMP in HEK293 cells transfected with hGPR17S
# Format: cell-based
# Test Settings: 3 µM forskolin, read-out: cAMP Potency EC50 (reversal of inhibition)
# Procedure: HEK293 cells were maintained and transfected as previously described. Live-cell, real-time cAMP measurements were performed using Promega (Madison, WI, USA) GloSensor cAMP luminescent biosensor technology. Glosensor cAMP experiments were conducted as previously described in GLUTag cells and HEK293 cells.
Property Name: EC50
Could you kindly put the unit after your number?

Please give the measured EC50 for this compound: O=C(O)CCc1c(C(=O)O)[nH]c2cc(Cl)cc(Cl)c12 [MDL29,951] 3.6 µM

###

# Tgt: hGPR17L (Homo sapiens, UniProt Q13304)
# Sequence (Q13304 whole entry): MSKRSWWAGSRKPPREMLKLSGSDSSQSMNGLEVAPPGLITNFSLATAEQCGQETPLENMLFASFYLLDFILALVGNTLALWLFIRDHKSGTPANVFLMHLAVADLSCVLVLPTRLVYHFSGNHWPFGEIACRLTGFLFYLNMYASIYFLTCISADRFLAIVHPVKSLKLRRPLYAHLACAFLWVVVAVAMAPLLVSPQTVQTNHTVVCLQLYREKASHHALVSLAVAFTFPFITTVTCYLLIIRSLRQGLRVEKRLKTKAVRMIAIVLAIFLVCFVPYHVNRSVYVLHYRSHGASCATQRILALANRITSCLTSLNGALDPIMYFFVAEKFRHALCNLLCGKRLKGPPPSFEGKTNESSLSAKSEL
# Method Description: Calcium flux (Calcium 6) in GLUTag cells expressing hGPR17L
# Format: cell-based
# Parameters: host or cells: GLUTag cells (murine enteroendocrine line), adenoviral transduction
# Test Settings: GLUTag hGPR17L, Figure 1B; read-out: potency (EC50), calcium flux
Property Name: pEC50
Entry type: numeric. Quantity: pEC50, the -log10 of concentration in molar units.

Please give the measured pEC50 for this molecule: O=C(O)CCc1c(C(=O)O)[nH]c2cc(Cl)cc(Cl)c12 [MDL29,951] 6.66

###

# Tgt: hGPR17L (Homo sapiens, UniProt Q13304)
# Method Description: Membrane β-arrestin recruitment in HEK293 cells transfected with hGPR17L
# Assay type: cell-based
# Test Settings: read-out: β-arrestin Potency EC50
# Description: Membrane β-arrestin recruitment measurements were conducted using a luminescent membrane β-arrestin recruitment reporter assay. […] Luminescence was read using a SpectraMax iD3 (Molecular Devices) with 1 s integration time. Baseline luminescence was read every 2 min for 6 min. Agonist was added and then luminescence was read every 2 min for 30 min.
Property Name: pEC50
Entry type: numeric. Quantity: pEC50, the -log10 of concentration in molar units.

Please give the measured pEC50 for this compound: "O=C(O)CCc1c(C(=O)O)[nH]c2cc(Cl)cc(Cl)c12" 6.72
